Can you tell me cytotoxicity at 10 µM for the items I'm about to list?
assay: Toxicity liver stage against HepG2, at 10uM; type: cell-based; parameters: test concentration 10 uM, cell line HepG2-A16-CD81EGFP; settings: human, HepG2-A16-CD81EGFP cells; read-out: INHIBITION
Please reply with the bare figure in % and do not write the unit itself.

Per the records, this compound ( "CC(C)c1nnc(NC(=O)c2cccc(OCC(F)(F)F)n2)[nH]1" ) has cytotoxicity at 10 µM equal to -1.26

Per the records, this compound ( "Cc1noc(CN(Cc2ccc3c(c2)OCCO3)Cc2ccco2)n1" ) has cytotoxicity at 10 µM equal to -10.8

Per the records, this compound ( "O=C1C[C@@H]2[C@H](CCN2Cc2ccco2)N1c1ccsc1" ) has cytotoxicity at 10 µM equal to 8.55

Per the records, this compound ( "CNc1nc2c(s1)C(=O)CN(C(=O)NCc1ccccc1)C2" ) has cytotoxicity at 10 µM equal to 24.4

Per the records, this compound ( "CCNC(=O)[C@@H]1C[C@@H](N)CN1Cc1ccc(-c2ccccc2C#N)o1" ) has cytotoxicity at 10 µM equal to -50.1

Per the records, this compound ( "Cc1ccc(CS(=O)(=O)Cc2nc(N)nc(N(C)C)n2)cc1" ) has cytotoxicity at 10 µM equal to 3.13

Per the records, this compound ( Cc1cc(NC(=O)CN2CCCC2c2noc(C(C)C)n2)n(C)n1 (stereo unspecified) ) has cytotoxicity at 10 µM equal to 4.64

Per the records, this compound ( "Cc1cc(C)n(C2CCN(Cc3nc4ccccc4n3C)CC2)n1" ) has cytotoxicity at 10 µM equal to 1.64

Per the records, this compound ( "CCc1nc2c(c(N3CCOCC3)n1)CCN(C(=O)c1ccon1)CC2" ) has cytotoxicity at 10 µM equal to 10.6

Per the records, this compound ( COc1cccc(CCC2CCCN(C(=O)c3cnccn3)C2)c1 (stereo unspecified) ) has cytotoxicity at 10 µM equal to 13.7

Per the records, this compound ( COC1CN(C(=O)CC2CCCC2)CCC(=O)N(C)c2ccccc21 (stereo unspecified) ) has cytotoxicity at 10 µM equal to -32.8

Per the records, this compound ( "COc1cccc2c1OCCCN(Cc1ccc(C(N)=O)c(=O)[nH]1)C2" ) has cytotoxicity at 10 µM equal to 4.82

Per the records, this compound ( "O=S(=O)(NC[C@]12COC[C@H]1CN(CCc1ccccc1)C2)C1CC1" ) has cytotoxicity at 10 µM equal to 12.7

Per the records, this compound ( "Cc1nc(C2CCN(C(=O)c3cscn3)CC2)c2sccn12" ) has cytotoxicity at 10 µM equal to -5.16

Per the records, this compound ( "CCCc1nnc(C(=O)N(C)Cc2cnc3ccccn23)o1" ) has cytotoxicity at 10 µM equal to -3.41

Per the records, this compound ( "O=C(CCn1cncn1)N1CCC2(CC1)[C@H](O)C[C@@H]2OCCO" ) has cytotoxicity at 10 µM equal to -0.387

Per the records, this compound ( "CCOC(=O)Cn1c(=O)c(OCC)nc2cnccc21" ) has cytotoxicity at 10 µM equal to 4.25

Per the records, this compound ( "COc1ccc(-c2noc(C3=NN(C)C(=O)CC3)n2)cc1OC" ) has cytotoxicity at 10 µM equal to -0.51

Per the records, this compound ( "CC(=O)N1CC=C(n2c(=O)[nH]c3ccccc32)CC1" ) has cytotoxicity at 10 µM equal to 1.73

Per the records, this compound ( "c1cc(CNCc2ccc(-n3cncn3)nc2)cc(OC2CCCC2)c1" ) has cytotoxicity at 10 µM equal to 2.3

Per the records, this compound ( "CN(C)C(=O)N1CCN(Cc2ccccc2)[C@@H]2CS(=O)(=O)C[C@@H]21" ) has cytotoxicity at 10 µM equal to -12.6

Per the records, this compound ( "Cn1ccnc1-c1noc(NCc2ccccc2)n1" ) has cytotoxicity at 10 µM equal to -3.49

Per the records, this compound ( "Cc1cc(Cl)cc(C)c1CNC1CCN(CC(=O)N(C)C)CC1" ) has cytotoxicity at 10 µM equal to -1.51

Per the records, this compound ( CCc1c(C)nc2cc(C3CCN(CCc4ccccc4)C3)nn2c1O (stereo unspecified) ) has cytotoxicity at 10 µM equal to -20.1

Per the records, this compound ( CC(=O)Nc1ccc(SCC(O)COCc2ccco2)cc1 (stereo unspecified) ) has cytotoxicity at 10 µM equal to 8.45

Per the records, this compound ( O=C(c1cccnc1O)N1CCOC(c2ccc(Cl)cc2)C1 (stereo unspecified) ) has cytotoxicity at 10 µM equal to 2.6

Per the records, this compound ( Cc1ccc(C2CSCCN2CCS(C)(=O)=O)cc1 (stereo unspecified) ) has cytotoxicity at 10 µM equal to -8.3

Per the records, this compound ( "c1cnc(NCc2cncc3c2CCN(CC2CC2)C3)nc1" ) has cytotoxicity at 10 µM equal to -101

Per the records, this compound ( "CCNC(=O)[C@@H]1C[C@@H](NC(=O)Cc2ccccn2)CN1CCCSC" ) has cytotoxicity at 10 µM equal to -6.72

Per the records, this compound ( "CCCSc1nn(CCCN(C)C)c2nc3sc(C)c(CC)c3c(=O)n12" ) has cytotoxicity at 10 µM equal to -3.63

Per the records, this compound ( CC(C)(C)N1CC(c2ncc(-c3ccc4c(c3)OCCO4)[nH]2)CC1=O (stereo unspecified) ) has cytotoxicity at 10 µM equal to 6.19

Per the records, this compound ( O=C(O)CC1CN(Cc2ccccc2)CCO1 (stereo unspecified) ) has cytotoxicity at 10 µM equal to 6.54

Per the records, this compound ( "O=C(NCCCn1nc2ccccn2c1=O)NCCC1CCC1" ) has cytotoxicity at 10 µM equal to 5.47

Per the records, this compound ( CCCC(=O)N1CCCC(c2ccccn2)C1 (stereo unspecified) ) has cytotoxicity at 10 µM equal to 0.0858

Per the records, this compound ( "COc1cc(N2CCc3ncnc(-c4ccncc4)c3CC2)ncn1" ) has cytotoxicity at 10 µM equal to 9.85

Per the records, this compound ( "COCCN1C[C@@H]2CN(S(=O)(=O)c3cccs3)C[C@@H]2C1=O" ) has cytotoxicity at 10 µM equal to 0.258

Per the records, this compound ( "Cn1cc(C(=O)N2CC[C@@]3(O)CCN(C(=O)C4CCCC4)C[C@H]3C2)cn1" ) has cytotoxicity at 10 µM equal to -138

Per the records, this compound ( Fc1cccc(-n2cc(CN3CCCCC3CCn3ccnc3)cn2)c1 (stereo unspecified) ) has cytotoxicity at 10 µM equal to -8.55

Per the records, this compound ( "O=C(NCCN1CCOCC1)c1cc(COc2ccccc2F)[nH]n1" ) has cytotoxicity at 10 µM equal to 13.1

Per the records, this compound ( "CC(=O)N1CCCN(C(=O)NCc2ccccn2)CC1" ) has cytotoxicity at 10 µM equal to -7.37

Per the records, this compound ( "CCN(CC)CC1CCN(Cc2ncc(C(C)(C)C)o2)CC1" ) has cytotoxicity at 10 µM equal to -7.22

Per the records, this compound ( "O=C(CC1CC1)N1CCC2(CC1)CN(CCn1cccn1)C(=O)CO2" ) has cytotoxicity at 10 µM equal to 1.75

Per the records, this compound ( "Cn1cc(C[C@H]2[C@H](O)CCN2Cc2ccc(F)cc2)cn1" ) has cytotoxicity at 10 µM equal to -75.9

Per the records, this compound ( "O=C(c1ccnnc1)N1C[C@@H]2CN(c3ncccn3)C[C@@H]2C1" ) has cytotoxicity at 10 µM equal to 7.19

Per the records, this compound ( "CN(Cc1cn2c(n1)CN(c1ncc(F)cn1)CC2)Cc1ccco1" ) has cytotoxicity at 10 µM equal to 3.96

Per the records, this compound ( "Cc1noc(C)c1CN1CCC(c2nnc(Cn3cccn3)n2C)CC1" ) has cytotoxicity at 10 µM equal to 3.82
